- Test system: HEK-293T
- ASSAY NOTES: Incucyte cell viability with HEK293T; also: unitless GR value; below 1 slowed growth and below 0 cell loss
- Assay type: toxicity, cell-based
- CONDITION SET: human, 6 h, 10 µM, compound concentration 10 uM, replicate number 1, timepoint 6 hours
ASSAY READOUT: Growth Rate

Observe how each entry below is paired with its result.
Request: Give the reported Growth Rate for this molecule. `O=c1ccn([C@@H]2O[C@H](COP(=O)([O-])OP(=O)([O-])OP(=O)([O-])O)[C@@H](O)[C@H]2O)c(=O)[nH]1.[Na+].[Na+].[Na+]`
Result: 0.64

Request: Give the reported Growth Rate for this molecule. CSCC[C@H](NC(=O)[C@H](CC(C)C)NC(=O)CNC(=O)[C@H](Cc1ccccc1)N(C)C(=O)[C@H](Cc1ccccc1)NC(=O)[C@H](CC(=O)O)NC(=O)CCC(=O)O)C(N)=O [SENKTIDE]
Result: 0.83

Could you now look at the following molecule, please?
Request: Give the reported Growth Rate for this molecule. COc1cc2nc(N3CCN(C(=O)C4CCCO4)CC3)nc(N)c2cc1OC.Cl.O.O (stereo not drawn) [TERAZOSIN HYDROCHLORIDE]
Result: 0.91

* * *

Documented Growth Rate across a set of compounds
- Test system: U2OS
- ASSAY NOTES: Incucyte cell viability with U2OS; also: unitless GR value; below 1 slowed growth and below 0 cell loss
- Format: toxicity, cell-based
- CONDITION SET: human, 12 h, 10 µM, compound concentration 10 uM, replicate number 2, timepoint 12 hours
When you answer, write just the number.

Observe how each entry below is paired with its result.
Request: Give the reported Growth Rate for this compound. `CSc1nc(NC2CCCC2)c([N+](=O)[O-])c(NC2CCCC2)n1`
Result: 0.75

Request: Give the reported Growth Rate for this compound. `Fc1cccc(/C=N/N=C/c2cccc(F)c2)c1`
Result: 0.84

Request: Give the reported Growth Rate for this compound. `COC(=O)Nc1nc2ccc(C(=O)c3cccs3)cc2[nH]1`
Result: -0.16

Request: Give the reported Growth Rate for this compound. `C[C@H](N)COC(=O)[C@@H](CCCCN)NC(=O)Cc1c(-c2ccc3ccccc3c2)[nH]c2c1ccc1ccccc12`
Result: 0.83

Request: Give the reported Growth Rate for this compound. `CC(C)c1noc(N2CCC(COc3ccc(-c4ccc(S(C)(=O)=O)cc4)nc3)CC2)n1`
Result: 0.96

Continuing:
Request: Give the reported Growth Rate for this compound. `CCc1cc2c(cc1-c1cccc(S(=O)(=O)F)c1)C(C)(C)c1[nH]c3cc(C#N)ccc3c1C2=O`
Result: 0.81

Request: Give the reported Growth Rate for this compound. COC(=O)N1CCN(C(=O)Cc2ccc(Cl)c(Cl)c2)C(CN2CCCC2)C1.O=C(O)/C=C/C(=O)O (configuration not stated)
Result: 0.54

Request: Give the reported Growth Rate for this compound. `Cc1nc2ccc(Oc3ccc(F)cc3)cc2c(=O)n1C[C@H]1CCCN(C(C)C)C1.Cl`
Result: 0.97

Request: Give the reported Growth Rate for this compound. `N=C(N)NCCC[C@H](NC(=O)COCC(c1ccccc1)c1ccccc1)C(=O)O.O=C(O)C(F)(F)F`
Result: 0.86

Request: Give the reported Growth Rate for this compound. `Cc1cnc(CNCC2(F)CCN(C(=O)c3ccc(F)c(Cl)c3)CC2)nc1`
Result: 0.96

Request: Give the reported Growth Rate for this compound. `Cc1cc(CN)cc(C)c1-c1ncn(C)c1-c1ccnc2cc(F)ccc12`
Result: 0.55

Request: Give the reported Growth Rate for this compound. `CC(C)C[C@@H](NC(=O)[C@H](Cc1ccccc1)NC(=O)CNC(=O)[C@@H](C)NC(=O)[C@@H](N)Cc1ccc(O)cc1)C(=O)O`
Result: 0.93

Request: Give the reported Growth Rate for this compound. `CC(=O)c1ccc2c(c1)[C@@H]1C=CC[C@@H]1[C@H](c1cc3c(cc1Br)OCO3)N2`
Result: -0.23

Request: Give the reported Growth Rate for this compound. `CCCCC[C@H](O)/C=C/[C@H]1[C@H](O)CC(=O)[C@@H]1CCCCCCC(=O)O`
Result: 0.88

Request: Give the reported Growth Rate for this compound. `O=C(NCC(=O)N1CC[C@H](N[C@H]2CC[C@@](O)(c3ccc(-c4ncccn4)cn3)CC2)C1)c1cccc(C(F)(F)F)c1`
Result: 0.53

Request: Give the reported Growth Rate for this compound. `CCNC1(C(N)=O)CCN(c2ncnc3c2nc(-c2ccccc2Cl)n3-c2ccc(Cl)cc2)CC1`
Result: 0.93

Request: Give the reported Growth Rate for this compound. `Cn1cnc(-c2cc3nccc(Oc4ccc(NC(=S)NC(=O)Cc5ccccc5)cc4F)c3s2)c1`
Result: 0.95

* * *

- System: Fibroblast
- ASSAY NOTES: Incucyte cell viability with human fibroblast; also: unitless GR value; below 1 slowed growth and below 0 cell loss
- Format: toxicity, cell-based
- CONDITION SET: 18 h, 10 µM, compound concentration 10 uM, replicate number 1, timepoint 18 hours
Record Met whenever Growth Rate is at 0.5 or higher; record Not met when lower.

Request: Is Growth Rate for COC(=O)Nc1nc2ccc(C(=O)c3cccs3)cc2[nH]1 [NOCODAZOLE] at or above 0.5?
Result: Not met

Request: Is Growth Rate for `N=C(N)NCCC[C@@H](NC(=O)C(c1ccccc1)c1ccccc1)C(=O)NCc1ccc(CNC(N)=O)cc1.O=C(O)C(F)(F)F.O=C(O)C(F)(F)F` at or above 0.5?
Result: Not met

Request: Is Growth Rate for CCNC(=O)c1cc2c(-c3cc(C(C)(C)O)ccc3Oc3c(C)cc(F)cc3C)cn(C)c(=O)c2[nH]1 [ABBV-744] at or above 0.5?
Result: Met

Request: Is Growth Rate for Cc1cc(NC(=O)NCCN2CCC(O)(Cc3ccccc3)CC2)c2ccccc2n1 [PALOSURAN] at or above 0.5?
Result: Not met

Request: Is Growth Rate for `CCOC(=O)c1c(/C(C#N)=C\N)c2ccc(Cl)c(Cl)c2n1C` at or above 0.5?
Result: Not met

Request: Is Growth Rate for `COc1cc2nc(N3CCN(C(=O)COc4c(OC)cccc4C(C)C)CC3)nc(N)c2cc1OC.Cl.Cl` at or above 0.5?
Result: Not met

Request: Is Growth Rate for `C[C@H](N)COC(=O)[C@@H](CCCCN)NC(=O)Cc1c(-c2ccc3ccccc3c2)[nH]c2c1ccc1ccccc12` at or above 0.5?
Result: Met

Request: Is Growth Rate for `Cl.FC(F)(F)c1ccc(N2CCNCC2)nc1Cl` at or above 0.5?
Result: Not met

Request: Is Growth Rate for `O=C(Nc1cc(-c2ccccc2)nn1-c1ccccc1F)c1ccc([N+](=O)[O-])cc1` at or above 0.5?
Result: Not met

Request: Is Growth Rate for `CC(C)c1cc(-c2ccc(F)c3ccccc23)nc(N)n1` at or above 0.5?
Result: Not met

Request: Is Growth Rate for CN[C@@H]1C[C@H]2O[C@@](C)([C@@H]1OC)n1c3ccccc3c3c4c(c5c6ccccc6n2c5c31)C(=O)NC4 [STAUROSPORINE] at or above 0.5?
Result: Not met

Request: Is Growth Rate for N#Cc1c(N)nc(SCc2csc(-c3ccc(Cl)cc3)n2)c(C#N)c1-c1ccc(OCCO)cc1 [CAPADENOSON] at or above 0.5?
Result: Not met

* * *

Documented Growth Rate across a set of compounds
- Tested on: Fibroblast
- ASSAY NOTES: Incucyte cell viability with human fibroblast; also: unitless GR value; below 1 slowed growth and below 0 cell loss
- Type: toxicity, cell-based
- CONDITION SET: 18 h, 10 µM, compound concentration 10 uM, replicate number 1, timepoint 18 hours
When you answer, write just the number.

Observe how each entry below is paired with its result.
Request: Give the reported Growth Rate for this compound. O=S(=O)(c1ccccc1)c1cnc2c(N3CCNCC3)cccc2c1 [INTEPIRDINE]
Result: 0.61

Request: Give the reported Growth Rate for this compound. `Cc1ccc(-c2ccc(F)cc2COc2ccc(CCC(=O)O)cc2)cc1`
Result: 0.18

Request: Give the reported Growth Rate for this compound. `CCCn1c(=O)c2[nH]c(C3CCCC3)nc2n(CCC)c1=O`
Result: -0.16

Continuing:
Request: Give the reported Growth Rate for this compound. `NCCc1cn(S(=O)(=O)c2c(Cl)nc3sccn23)c2ccccc12.O=C(O)C(=O)O`
Result: -0.67

Request: Give the reported Growth Rate for this compound. `O=C(O)COc1cccc(-c2ocnc2-c2nc(-c3ccccc3)c(-c3ccccc3)o2)c1`
Result: 0.64

Request: Give the reported Growth Rate for this compound. C[C@@H](O[C@H]1OCCN(Cc2n[nH]c(=O)[nH]2)[C@H]1c1ccc(F)cc1)c1cc(C(F)(F)F)cc(C(F)(F)F)c1 [APREPITANT]
Result: 0.18

Request: Give the reported Growth Rate for this compound. Cc1ccc(/C(=C\CN2CCCC2)c2ccccn2)cc1 [TRIPROLIDINE]
Result: 0.98

Request: Give the reported Growth Rate for this compound. `CCCCNNC(=O)c1ccc(Br)cc1`
Result: 0.74

Request: Give the reported Growth Rate for this compound. `CCCN1CCO[C@H]2c3cc(O)ccc3OC[C@@H]21.Cl`
Result: 0.72

Request: Give the reported Growth Rate for this compound. `Cc1cccc(NC(=O)CN2CCC(c3ccccn3)CC2)c1.Cl.Cl`
Result: 0.48

Request: Give the reported Growth Rate for this compound. `Cc1cc(C)cc([C@H]2c3cc(C)ccc3NC(=O)CN2C(=O)c2ccc(Br)s2)c1`
Result: 0.44

Request: Give the reported Growth Rate for this compound. Cc1ccccc1-c1cc(N2CCN(C)CC2)ncc1N(C)C(=O)C(C)(C)c1cc(C(F)(F)F)cc(C(F)(F)F)c1 [NETUPITANT]
Result: 0.73

Request: Give the reported Growth Rate for this compound. O=C(NCCN1CCC(n2c(=O)[nH]c3cc(Cl)ccc32)CC1)c1ccc(F)cc1 [HALOPEMIDE]
Result: -0.17

Request: Give the reported Growth Rate for this compound. CSc1nc(NC2CCCC2)c([N+](=O)[O-])c(NC2CCCC2)n1 [GS-39783]
Result: 0.18

Request: Give the reported Growth Rate for this compound. CC[C@@H](C)Nc1nc(C)nc2c(-c3ccc(OC)nc3C)c(C)nn12 [PEXACERFONT]
Result: -0.19

Request: Give the reported Growth Rate for this compound. `Nc1nc(-c2ccco2)c2cnn(Cc3ccccc3F)c2n1`
Result: -0.75

Request: Give the reported Growth Rate for this compound. CC(=O)NCC(=O)N1[C@@H]2CC[C@H]1c1ccc(Nc3ncc(C(F)(F)F)c(NC4CCC4)n3)cc12 [PF-03814735]
Result: 0.72

Request: Give the reported Growth Rate for this compound. O=C(O)CCC/C=C\CC1C(O)CC(O)C1/C=C/C(O)COc1cccc(Cl)c1 (centres undefined) [CLOPROSTENOL]
Result: 0.2

Request: Give the reported Growth Rate for this compound. CCCCC/C=C\C/C=C\C/C=C\C/C=C\CCCC(=O)NCC(=O)O [ARACHIDONOYL GLYCINE]
Result: 0.78
